- MEASUREMENT_PROTOCOL: Half life in rat liver microsome
- Assay type: ADME
- EXPERIMENTAL_CONTEXT: liver microsomes

{"COMPOUND": "N#Cc1cc(OC(F)(F)F)cc(-c2nc(-c3ccc4c(c3)cc3n4CCC3CC(=O)O)no2)c1 (single isomer, unassigned; enantiomer 2)", "half-life": "> 1 h"}
{"COMPOUND": "N#Cc1cc(OC(F)(F)F)cc(-c2nc(-c3ccc4[nH]c5c(c4c3)CCC5CC(=O)O)no2)c1 (single isomer, unassigned)", "half-life": "> 1 h"}

* * *

Consider the following molecules and their measured EC50 readings.
- TEST_TARGET: Sphingosine 1-phosphate receptor 1 (Homo sapiens, UniProt P21453)
- Sequence (P21453 whole entry): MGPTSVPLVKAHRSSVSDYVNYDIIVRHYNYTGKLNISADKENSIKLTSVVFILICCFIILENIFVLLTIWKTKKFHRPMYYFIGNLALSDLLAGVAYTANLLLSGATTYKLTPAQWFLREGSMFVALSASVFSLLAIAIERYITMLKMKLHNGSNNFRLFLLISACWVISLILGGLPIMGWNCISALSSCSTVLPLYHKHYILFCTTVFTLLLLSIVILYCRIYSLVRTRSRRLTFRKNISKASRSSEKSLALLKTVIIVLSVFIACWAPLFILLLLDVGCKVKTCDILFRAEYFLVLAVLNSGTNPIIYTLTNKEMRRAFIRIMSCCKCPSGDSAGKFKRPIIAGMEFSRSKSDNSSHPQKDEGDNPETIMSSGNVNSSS
- MEASUREMENT_PROTOCOL: Agonist activity against human S1P1 assessed as accumulation of cAMP by HTRF assay
- Format: functional

{"MOLECULE": "COc1ccc(-c2nc(-c3ccc4c(c3)cc3n4CCC3CC(=O)O)no2)cc1C#N (racemic)", "RESULT_UNITS": "nM", "EC50": 2.9}
{"MOLECULE": "N#Cc1cc(OC(F)(F)F)cc(-c2nc(-c3ccc4c(c3)cc3n4CCC3CC(=O)O)no2)c1 (single isomer, unassigned; enantiomer 2)", "RESULT_UNITS": "nM", "EC50": 0.08}
{"MOLECULE": "N#Cc1cc(-c2nc(-c3ccc4[nH]c5c(c4c3)CCC5CC(=O)O)no2)ccc1OC(F)(F)F (racemic)", "RESULT_UNITS": "nM", "EC50": 3.2}
{"MOLECULE": "N#Cc1cc(OC(F)(F)F)cc(-c2nc(-c3ccc4[nH]c5c(c4c3)CCC5CC(=O)O)no2)c1 (single isomer, unassigned)", "RESULT_UNITS": "nM", "EC50": 0.75}
{"MOLECULE": "N#Cc1cc(OC(F)(F)F)cc(-c2nc(-c3ccc4c(c3)cc3n4CCC3CC(=O)O)no2)c1 (racemic)", "RESULT_UNITS": "nM", "EC50": 0.25}
{"MOLECULE": "COc1cc(C#N)cc(-c2nc(-c3ccc4c(c3)cc3n4CCC3CC(=O)O)no2)c1 (racemic)", "RESULT_UNITS": "nM", "EC50": 4.6}
{"MOLECULE": "N#Cc1cc(-c2nc(-c3ccc4c(c3)cc3n4CCC3CC(=O)O)no2)ccc1OC(F)(F)F (racemic)", "RESULT_UNITS": "nM", "EC50": 0.59}
